- Tested on: Streptococcus pyog.
In this section we review reported MIC values for a set of compounds.
QUANTITY NAME: MIC (µg/mL)

| COMPOUND | SUBJECT OF TEST | QUANTITY NAME | VALUE COMPARATOR | OBSERVED MEASUREMENT |
| --- | --- | --- | --- | --- |
| NCc1cccc(C2CCN(c3cc4c(cc3F)c(=O)c(C(=O)O)cn4C3CC3)C2)c1 (stereo not shown) [Example 7] | Streptococcus pyog. | MIC | ≤ | 0.003 |
| O=C(O)c1cn(C2CC2)c2cc(N3CCC(c4ccccn4)C3)c(F)cc2c1=O (stereo not shown) [Example 17] | Streptococcus pyog. | MIC | = | 0.05 |
| NCc1cccc(C2CCN(c3c(F)c(N)c4c(=O)c(C(=O)O)cn(C5CC5)c4c3F)C2)c1 (stereo not shown) [Example 8] | Streptococcus pyog. | MIC | = | 0.013 |
| NCc1cccc(C2CCN(c3nc4c(cc3F)c(=O)c(C(=O)O)cn4C3CC3)C2)c1 (stereo not shown) [Example 6] | Streptococcus pyog. | MIC | = | 0.006 |
| CNCc1cccc(C2CCN(c3c(F)c(N)c4c(=O)c(C(=O)O)cn(C5CC5)c4c3F)C2)c1 (stereo not shown) [Example 13] | Streptococcus pyog. | MIC | = | 0.05 |
| CNCc1ccc(C2CCN(c3c(F)c(N)c4c(=O)c(C(=O)O)cn(C5CC5)c4c3F)C2)cc1 (stereo not shown) [Example 15] | Streptococcus pyog. | MIC | = | 0.013 |
| CNCc1ccc(C2CCN(c3cc4c(cc3F)c(=O)c(C(=O)O)cn4C3CC3)C2)cc1 (stereo not shown) [Example 14] | Streptococcus pyog. | MIC | = | 0.013 |

----------
- System: Streptococcus faec.

| COMPOUND | MIC, µg/mL |
| --- | --- |
| NCc1ccc(C2CCN(c3c(F)c(N)c4c(=O)c(C(=O)O)cn(C5CC5)c4c3F)C2)cc1 (stereo not shown) [Example 11] | 0.013 |
| NCc1cccc(C2CCN(c3c(F)c(N)c4c(=O)c(C(=O)O)cn(C5CC5)c4c3F)C2)c1 (stereo not shown) [Example 8] | 0.013 |
| O=C(O)c1cn(C2CC2)c2cc(N3CCC(c4cccnc4)C3)c(F)cc2c1=O (stereo not shown) [Example 21] | 0.025 |
| O=C(O)c1cn(C2CC2)c2cc(N3CCC(c4ccccn4)C3)c(F)cc2c1=O (stereo not shown) [Example 17] | 0.05 |

----------
- System: S. aureus S
In this section we review reported MIC values for a set of compounds.

| COMPOUND | MIC |
| --- | --- |
| NCc1ccc(C2CCN(c3c(F)c(N)c4c(=O)c(C(=O)O)cn(C5CC5)c4c3F)C2)cc1 (stereo not drawn) | ≤ 3 ng/mL |
| O=C(O)c1cn(C2CC2)c2cc(N3CCC(c4cccnc4)C3)c(F)cc2c1=O (stereo not drawn) | ≤ 3 ng/mL |
| Nc1c(F)c(N2CCC(c3cccnc3)C2)c(F)c2c1c(=O)c(C(=O)O)cn2C1CC1 (stereo not drawn) | ≤ 3 ng/mL |
| Nc1c(F)c(N2CCC(c3ccncc3)C2)c(F)c2c1c(=O)c(C(=O)O)cn2C1CC1 (stereo not drawn) | ≤ 3 ng/mL |
| O=C(O)c1cn(C2CC2)c2cc(N3CCC(c4ccccn4)C3)c(F)cc2c1=O (stereo not drawn) | ≤ 3 ng/mL |
| NCc1cccc(C2CCN(c3c(F)c(N)c4c(=O)c(C(=O)O)cn(C5CC5)c4c3F)C2)c1 (stereo not drawn) | ≤ 3 ng/mL |
